# TESTED SYSTEM: T1, GIP receptor (assay by the procedure of Example 3)
# T1 sequence (P48546 whole entry, species assumed, looked up): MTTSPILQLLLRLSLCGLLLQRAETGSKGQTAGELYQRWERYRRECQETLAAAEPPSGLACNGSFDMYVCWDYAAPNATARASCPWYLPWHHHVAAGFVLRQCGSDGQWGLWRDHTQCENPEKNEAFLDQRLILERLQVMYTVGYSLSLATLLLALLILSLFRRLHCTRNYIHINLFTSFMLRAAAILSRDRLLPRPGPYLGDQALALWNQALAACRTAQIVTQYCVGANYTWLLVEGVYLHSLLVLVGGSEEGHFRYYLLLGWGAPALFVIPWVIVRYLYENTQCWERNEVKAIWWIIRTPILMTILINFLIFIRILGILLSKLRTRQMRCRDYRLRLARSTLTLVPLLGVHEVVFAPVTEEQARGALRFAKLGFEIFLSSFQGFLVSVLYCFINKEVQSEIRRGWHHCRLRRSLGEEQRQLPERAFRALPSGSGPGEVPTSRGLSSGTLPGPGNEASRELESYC
# METHOD SUMMARY: cell-based or functional assay
*1 amine or outer side, *2 acyl side, *3 side chain or, on linkers, in order; H or OH if unused. Where no end group is shown, it is not given here. Side-chain parts run from the residue outwards. [ ]: non-standard residue; d: D form. The star is where a group is joined. γGlu = O=C(O)[C@H](CCC(=O)[*:2])N[*:1]; Palmitoyl = CCCCCCCCCCCCCCCC(=O)*; Met(O) = CS(=O)CC[C@H](N)C(=O)O; Aib = CC(C)(N)C(=O)O
MEASURED QUANTITY: EC50 (nM) at GIP receptor (procedure of Example 3)

- BINDER: "H[Aib]QGTFTSDK([γGlu-γGlu-Palmitoyl])SKYLD[Aib]RAAQDFVQWLMDTK[γGlu]-NH2 [peptide of SEQ ID NO: 12]"
  TEST VALUE: "12.8 nM"
- BINDER: "H[Aib]QGTFTSDK([γGlu-γGlu-Palmitoyl])SKYLD[Aib]RAAQDFVQWL[Met(O)]DTKQ-OH (not fully specified; printed as HaibQGTFTSDK(γGlu-γGlu-C16)SKYLDaibRAAQDFVQWLMornDTKQ-acid) [peptide of SEQ ID NO: 15]"
  TEST VALUE: "1.9 nM"
- BINDER: "HSQGTFTSDKSKYLDERAAQDFVQWLLDTKX (lower-case 's' at position 2 (taken as D-Ser; the table does not explain it); Lys at position 10 acylated as K(γGlu-C16); C-terminal γGlu; C-terminal amide) [peptide of SEQ ID NO: 14]"
  TEST VALUE: "976 nM"
- BINDER: "H[Aib]QGTFTSDYSKYLDERRA[Aib]EFVC(40K‑TE PEG)WLLDTK[γGlu]-NH2 [peptide of SEQ ID NO: 13]"
  TEST VALUE: "140 nM"
